Value source: patent US20220002432A1

Target: recombinant human ICAM1 (human, UniProt P05362 28-480, limits assumed)
Sequence (P05362 28-480 limits assumed): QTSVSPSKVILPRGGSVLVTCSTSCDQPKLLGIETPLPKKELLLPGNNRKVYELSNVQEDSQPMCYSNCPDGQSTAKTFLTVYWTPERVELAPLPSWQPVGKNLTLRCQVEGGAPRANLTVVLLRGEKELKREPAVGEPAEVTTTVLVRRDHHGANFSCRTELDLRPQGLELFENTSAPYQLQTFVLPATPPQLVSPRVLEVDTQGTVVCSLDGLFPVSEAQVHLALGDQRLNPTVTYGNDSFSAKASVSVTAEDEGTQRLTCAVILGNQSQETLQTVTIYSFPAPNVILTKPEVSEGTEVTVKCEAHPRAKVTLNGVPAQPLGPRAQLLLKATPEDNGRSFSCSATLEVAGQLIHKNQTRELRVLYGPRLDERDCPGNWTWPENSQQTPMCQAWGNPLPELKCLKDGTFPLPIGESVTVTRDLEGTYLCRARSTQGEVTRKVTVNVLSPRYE
Test: SPR (Biacore 8K), antibody captured, antigen injected
Catalogue of binders with associated kon
Could you give me the number in M⁻¹ s⁻¹? Just the number is fine.

{"binder": "3D8 (antibody, human IgG1, kappa, V domains shown, Rabbit-human chimeric anti-ICAM1: rabbit VH and VL on human IgG1 and kappa constant regions) VH: QSLEESGGDLVKPGASLTLTCTASGFSFSSSYWMCWVRQAPGKGLEWIACIDGGSAGYNYYATWAKGRFTISKTSSTTVTLQMTSLTAADRATYFCARGPGSSYNLWGPGTLVTVSS VL: DIVMTQTPASVEAAVGGTVTIKCQASQSISSYLSWYQQKPGQPPKLLIYRASTLASGVPSRFKGSGSGTEFTLTISDLESADAATYYCQSYVFGSSRSYDNAFGGGTEVVVKR", "kon (M⁻¹ s⁻¹)": 540000}
{"binder": "14H1 (antibody, human IgG1, kappa, V domains shown, Rabbit-human chimeric anti-ICAM1: rabbit VH and VL on human IgG1 and kappa constant regions) VH: QSVEESGGRLVTPGTPLTLTCTVSGFSLSNYYMSWVRQAPGKGLEWIGIISDSGSTYYASWAKGRFTISKTSTTVDLSITSPTTEDTATYFCARDWSYDSTSGYYYYDMDLWGPGTLVTVSA VL: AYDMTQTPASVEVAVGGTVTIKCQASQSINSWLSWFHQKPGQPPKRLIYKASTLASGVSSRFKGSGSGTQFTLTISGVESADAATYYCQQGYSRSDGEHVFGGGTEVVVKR", "kon (M⁻¹ s⁻¹)": 146000}

// sample 5B12 (antibody, human IgG1, kappa, V domains shown, Rabbit-human chimeric anti-ICAM1: rabbit VH and VL on human IgG1 and kappa constant regions) VH: QSLEESGGRLVTPGTPLTLTCTVSGFSLSSYGMSWVRQAPGKGLEYIGWISFSGSAYYANWAKGRFTISKTSTTVDLKITSPTTEDTATYFCARGGDYGGSTYILNLWGPGTLVTVSS VL: AFELTQTPSSVEAAVGGTVTIKCQASESIDSYLSWYQQKPGQPPKLLIYAASTLASGVSSRFKGSGSGTEFTLTISDLESADAATYYCQSYSGTITTSGGAFGGGTEVVVKR , its kon was 213000
